Assay: Tissue distribution of Compound A in mice with mammary C/16 adenocarcinomas (first method: liver, heart, kidney, lung, spleen, tumor)
Type: in vivo, C3H/HeN female mice
Settings: mouse, liver/plasma, iv, 40 mg/kg, 0.033 h; mice with tumors; single mice; read-out: Tissue/Plasma Ratio, LIVER
METRIC: Kp at 0.033 h
Give the figure only, with no unit attached.

Prompt: Dear colleague, please send me the reported Kp at 0.033 h for CC(=O)O[C@H]1C(=O)[C@]23C[C@H]2C[C@H]2OC[C@@]2(OC(C)=O)[C@H]3[C@H](OC(=O)c2ccccc2)[C@]2(O)C[C@H](OC(=O)[C@H](O)[C@@H](NC(=O)OC(C)(C)C)c3ccccc3)C(C)=C1C2(C)C when you can.
Completion: 1.54

----------
Test: Tissue distribution of Compound A in mice with mammary C/16 adenocarcinomas (first method: liver, heart, kidney, lung, spleen, tumor)
Format: in vivo, C3H/HeN female mice
Details: mouse, tissues, iv, 40 mg/kg, 40 mg/kg i.v.; tissues tested except tumor and brain; read-out: elimination half-life, slower phase
METRIC: half-life

Prompt: Dear colleague, please send me the reported half-life for CC(=O)O[C@H]1C(=O)[C@]23C[C@H]2C[C@H]2OC[C@@]2(OC(C)=O)[C@H]3[C@H](OC(=O)c2ccccc2)[C@]2(O)C[C@H](OC(=O)[C@H](O)[C@@H](NC(=O)OC(C)(C)C)c3ccccc3)C(C)=C1C2(C)C when you can.
Completion: 96 to 450 min

----------
Experiment: Tissue distribution of Compound A in mice with mammary C/16 adenocarcinomas (first method: liver, heart, kidney, lung, spleen, tumor)
Format: in vivo, C3H/HeN female mice
Conditions: mouse, spleen/plasma, iv, 40 mg/kg, 14 h; mice with tumors; single mice; read-out: Tissue/Plasma Ratio, SPLEEN
METRIC: Kp at 14 h

Prompt: Dear colleague, please send me the reported Kp at 14 h for CC(=O)O[C@H]1C(=O)[C@]23C[C@H]2C[C@H]2OC[C@@]2(OC(C)=O)[C@H]3[C@H](OC(=O)c2ccccc2)[C@]2(O)C[C@H](OC(=O)[C@H](O)[C@@H](NC(=O)OC(C)(C)C)c3ccccc3)C(C)=C1C2(C)C when you can.
Completion: 2.37

----------
Test: Tissue distribution of Compound A in mice with mammary C/16 adenocarcinomas (first method: liver, heart, kidney, lung, spleen, tumor)
Assay type: in vivo, C3H/HeN female mice
Conditions: mouse, heart/plasma, iv, 40 mg/kg, 0.083 h; mice with tumors; single mice; read-out: Tissue/Plasma Ratio, HEART
METRIC: Kp at 0.083 h
Give the figure only, with no unit attached.

Prompt: Dear colleague, please send me the reported Kp at 0.083 h for CC(=O)O[C@H]1C(=O)[C@]23C[C@H]2C[C@H]2OC[C@@]2(OC(C)=O)[C@H]3[C@H](OC(=O)c2ccccc2)[C@]2(O)C[C@H](OC(=O)[C@H](O)[C@@H](NC(=O)OC(C)(C)C)c3ccccc3)C(C)=C1C2(C)C [Compound A] when you can.
Completion: 0.98

----------
Assay: Tissue distribution of Compound A in mice with mammary C/16 adenocarcinomas (first method: liver, heart, kidney, lung, spleen, tumor)
Type: in vivo, C3H/HeN female mice
Conditions: mouse, lung/plasma, iv, 40 mg/kg, 0.083 h; 40 μg/kg [sic]; mice with tumors; single mice; read-out: Tissue/Plasma Ratio, LUNG
METRIC: Kp at 0.083 h
Give the figure only, with no unit attached.

Prompt: Dear colleague, please send me the reported Kp at 0.083 h for CC(=O)O[C@H]1C(=O)[C@]23C[C@H]2C[C@H]2OC[C@@]2(OC(C)=O)[C@H]3[C@H](OC(=O)c2ccccc2)[C@]2(O)C[C@H](OC(=O)[C@H](O)[C@@H](NC(=O)OC(C)(C)C)c3ccccc3)C(C)=C1C2(C)C when you can.
Completion: 0.79
